# log10 of GI50 listing for each entry below
assay: Cytotoxicity against human prostate cancer cells assessed as growth inhibition after 48 hrs by SRB assay; assay type: functional; settings: Cancer cell lines
measured endpoint: log10 of GI50 (log10 of the value in µM)

{"substance smiles": "O=C1c2ccccc2C(=O)c2c1cc(SCc1ccccc1)c1nsnc21", "measured endpoint": "log10 of GI50", "reported measurement": 1.02}
{"substance smiles": "O=C1c2ccccc2C(=O)c2c1cc(Sc1ccccc1Br)c1nsnc21", "measured endpoint": "log10 of GI50", "reported measurement": 1.26}
{"substance smiles": "O=C1c2ccccc2C(=O)c2c1cc(Sc1ccc(F)cc1F)c1nsnc21", "measured endpoint": "log10 of GI50", "reported measurement": 0.62}
{"substance smiles": "CC(C)Sc1cc2c(c3nsnc13)C(=O)c1ccccc1C2=O", "measured endpoint": "log10 of GI50", "reported measurement": -0.07}
{"substance smiles": "O=C1c2ccccc2C(=O)c2c1cc(Sc1cccc(Cl)c1)c1nsnc21", "measured endpoint": "log10 of GI50", "reported measurement": 0.36}

---

test system: MDA-MB-231; assay: Cytotoxicity against human MDA-MB-231 cells assessed as cell growth at 10 uM after 48 hrs by SRB assay relative to control; type: functional; settings: MDA-MB-231, 48 h, read-out: Activity
Could you please mark True for values of growth at 10 µM below -10% and False for values at or above it?

{"substance smiles": "Cc1cc(C)cc(Sc2cc3c(c4nsnc24)C(=O)c2ccccc2C3=O)c1", "classification": "False"}
{"substance smiles": "O=C1c2ccccc2C(=O)c2c1cc(SCc1ccccc1)c1nsnc21", "classification": "True"}
{"substance smiles": "Cc1ccccc1Sc1cc2c(c3nsnc13)C(=O)c1ccccc1C2=O", "classification": "False"}
{"substance smiles": "CCOc1cccc(Sc2cc3c(c4nsnc24)C(=O)c2ccccc2C3=O)c1", "classification": "False"}
{"substance smiles": "O=C1c2ccccc2C(=O)c2c1cc(Cl)c1nsnc21", "classification": "True"}
{"substance smiles": "O=C1c2ccccc2C(=O)c2c1cc(SCc1ccc(Cl)cc1)c1nsnc21", "classification": "False"}
{"substance smiles": "COc1cccc(Sc2cc3c(c4nsnc24)C(=O)c2ccccc2C3=O)c1", "classification": "False"}
{"substance smiles": "CSc1ccc(Sc2cc3c(c4nsnc24)C(=O)c2ccccc2C3=O)cc1", "classification": "False"}
{"substance smiles": "O=C1c2ccccc2C(=O)c2c1cc(Sc1cccc(Cl)c1)c1nsnc21", "classification": "True"}
{"substance smiles": "O=C1c2ccccc2C(=O)c2c1cc(Sc1cc(Cl)ccc1Cl)c1nsnc21", "classification": "False"}

---

tested on: SNB-19; test: Cytotoxicity against human SNB19 cells after 48 hrs by SRB assay; format: functional; conditions: SNB-19, 48 h
measured endpoint: TGI

{"substance smiles": "O=C1c2ccccc2C(=O)c2c1cc(Sc1ccccc1Br)c1nsnc21", "reported measurement": "> 50 µM"}
{"substance smiles": "O=C1c2ccccc2C(=O)c2c1cc(Sc1ccc(F)cc1F)c1nsnc21", "reported measurement": "30.9 µM"}
{"substance smiles": "O=C1c2ccccc2C(=O)c2c1cc(Sc1cccc(Cl)c1)c1nsnc21", "reported measurement": "21.2 µM"}
{"substance smiles": "CC(C)Sc1cc2c(c3nsnc13)C(=O)c1ccccc1C2=O", "reported measurement": "13.1 µM"}
{"substance smiles": "O=C1c2ccccc2C(=O)c2c1cc(SCc1ccccc1)c1nsnc21", "reported measurement": "38.8 µM"}

Entry source: ChEMBL document CHEMBL3621107
